Test system: myeloid leukemia patient primary cells Pat.10
assay-notes: cell viability (% survival relative to DMSO control); higher = less cytotoxic
condition-description: 100 nM; 72 h
quantity-kind: cell viability (%)
Give bare numbers, in %.

Worked examples, 3 molecules total:
>  <compound>
CCOC(=O)N1c2ccc(C(F)(F)F)cc2[C@@H](N(Cc2cc(C(F)(F)F)cc(C(F)(F)F)c2)C(=O)OC)C[C@H]1CC

>  <cell viability (%)>
78.5

$$$$
>  <compound>
C[C@]12O[C@H](C[C@]1(O)CO)n1c3ccccc3c3c4c(c5c6ccccc6n2c5c31)CNC4=O

>  <cell viability (%)>
45.6

$$$$
>  <compound>
Nc1ccn([C@@H]2O[C@H](CO)[C@@H](O)[C@@H]2O)c(=O)n1

>  <cell viability (%)>
67

$$$$

--- query ---
Noted for COc1c(C)c2c(c(O)c1C/C=C(\C)CCC(=O)O)C(=O)OC2 : its cell viability reads 79.2

* * *

Test system: HL-60
assay-notes: cell viability (% survival relative to DMSO control); higher = less cytotoxic
condition-description: 10 µM; 72 h; co-treatment: AZD3965 100 nM
Record form. Attribute: cell viability. Fill in for each entry.
Numbers only, in %.

Worked examples, 3 compounds total:
>  <compound>
C#Cc1cnc(O)nc1O

>  <numeric-value>
103

$$$$
>  <compound>
CC(C(=O)O)C(=O)O [methylmalonate]

>  <numeric-value>
98.6

$$$$
>  <compound>
Cl.OC[C@H]1NC[C@@H](O)[C@@H](O)[C@@H]1O [1-Deoxymannojirimycin hydrochloride]

>  <numeric-value>
101

$$$$

--- query ---
Noted for Clc1ccc2c(c1Cl)CNCC2 : its cell viability reads 102

* * *

Tested on: NOMO-1
assay-notes: cell viability (% survival relative to DMSO control, bortezomib = 0%); higher = less cytotoxic
condition-description: 100 nM; 72 h
quantity-kind: cell viability (%)
Answers are plain numbers, in %.

Worked examples, 3 compounds total:
>  <compound>
Clc1ccc(COC(Cn2ccnc2)c2ccc(Cl)cc2Cl)cc1 (stereo not given) [Econazole]

>  <unit-name>
%

>  <cell viability>
98.2

$$$$
>  <compound>
O=C(O)c1cc2sccc2[nH]1 [4H-thieno[3,2-b]pyrrole-5-carboxylic acid]

>  <unit-name>
%

>  <cell viability>
98.3

$$$$
>  <compound>
O=C1Nc2ccccc2/C1=C\NCCc1ccc(O)c(O)c1 [AC1NZZMF]

>  <unit-name>
%

>  <cell viability>
98

$$$$

Each compound below has a reported value. Please supply its cell viability.
1. O=C1Oc2ccccc2C(=O)C1CC1C(=O)Oc2ccccc2C1=O (stereo not given) [Dicumarol]
2. [N-]=[N+]=CC(=O)CC[C@H](N)C(=O)O [6-Diazo-5-oxo-L-norleucine]

[98.8, 104]

* * *

Test system: LAMA-84
assay-notes: cell viability (% survival relative to DMSO control, bortezomib = 0%); higher = less cytotoxic
condition-description: 1000 nM; 72 h
quantity-kind: cell viability (%)
Answers are plain numbers, in %.

Worked examples, 2 molecules total:
>  <molecule>
[N-]=[N+]=CC(=O)CC[C@H](N)C(=O)O [6-Diazo-5-oxo-L-norleucine]

>  <unit-name>
%

>  <numeric-value>
97.7

$$$$
>  <molecule>
Cl.OC[C@H]1NC[C@@H](O)[C@@H](O)[C@@H]1O [1-Deoxymannojirimycin hydrochloride]

>  <unit-name>
%

>  <numeric-value>
94

$$$$

Each molecule below has a reported value. Please supply its cell viability.
1. CCOC(=O)[C@H]1O[C@@H]1C(=O)N[C@@H](CC(C)C)C(=O)NCCC(C)C [Aloxistatin]
2. Cc1ccc(S(=O)(=O)NC2c3ccccc3Oc3ccccc32)cc1 [AH-7614]
3. O=c1c2ccccc2[se]n1-c1ccccc1 [Ebselen]
4. Cc1coc2c1C(=O)C(=O)c1c-2ccc2c(C)cccc12 [Tanshinone I]
5. O=C(O)C(Cl)Cl [Dichloroacetate]

[101, 95.5, 92.1, 108, 101]

Each molecule below has a reported value. Please supply its cell viability.
1. CC(/C=C1\SC(=S)N(CC(=O)O)C1=O)=C\c1ccccc1 [Epalrestat]
2. Oc1cc(Cl)ccc1Oc1ccc(Cl)cc1Cl [Triclosan]
3. Cc1c(-c2ccccc2)oc2c(C(=O)OCCN3CCCCC3)cccc2c1=O.Cl [Flavoxate]
4. N[C@](CCCCB(O)O)(CCN1CCCCC1)C(=O)O [Arginase inhibitor 1]
5. CCOC(=O)[C@@]1(CCCCCCOc2ccc(Cl)cc2)CO1 [Etomoxir]
6. O=C(O)c1cc2sccc2[nH]1 [4H-thieno[3,2-b]pyrrole-5-carboxylic acid]

1: 104; 2: 108; 3: 101; 4: 102; 5: 58.5; 6: 95.4

* * *

System: KG-1
assay-notes: cell viability (% survival relative to DMSO control, bortezomib = 0%); higher = less cytotoxic
condition-description: 1000 nM; 72 h
quantity-kind: cell viability (%)
Answers are plain numbers, in %.

>  <molecule>
O=C(O)CC[C@H](NC(=O)c1ccc([N+](=O)[O-])cc1)C(=O)O [(S)-2-(4-Nitrobenzamido)pentanedioic acid]

>  <unit-name>
%

>  <cell viability>
98.6

$$$$
>  <molecule>
Cc1noc2c1-c1ccccc1C(c1ccc(Cl)cc1)=N[C@H]2CC(N)=O

>  <unit-name>
%

>  <cell viability>
21.5

$$$$
>  <molecule>
Cl.OC[C@H]1NC[C@@H](O)[C@@H](O)[C@@H]1O [1-Deoxymannojirimycin hydrochloride]

>  <unit-name>
%

>  <cell viability>
112

$$$$

--- query ---
Noted for CCOC(=O)N1c2ccc(C(F)(F)F)cc2[C@@H](N(Cc2cc(C(F)(F)F)cc(C(F)(F)F)c2)C(=O)OC)C[C@H]1CC : its cell viability reads 81.1

* * *

Test system: K-562
condition-description: 72 h
quantity-kind: IC50 (cell viability)

Worked examples, 4 compounds total:
>  <compound>
O=C(O)c1cc2sccc2[nH]1 [4H-thieno[3,2-b]pyrrole-5-carboxylic acid]

>  <IC50 (cell viability)>
> 10 µM

$$$$
>  <compound>
Sc1ncnc2nc[nH]c12 [6-mercaptopurine]

>  <IC50 (cell viability)>
0.732 µM

$$$$
>  <compound>
O=C(O)CCc1ccc(NCc2cccc(Oc3ccccc3)c2)cc1 [GW9508]

>  <IC50 (cell viability)>
> 10 µM

$$$$
>  <compound>
CC(/C=C1\SC(=S)N(CC(=O)O)C1=O)=C\c1ccccc1 [Epalrestat]

>  <IC50 (cell viability)>
> 10 µM

$$$$

--- query ---
Noted for [N-]=[N+]=CC(=O)CC[C@H](N)C(=O)O [6-Diazo-5-oxo-L-norleucine] : its IC50 (cell viability) reads > 10 µM

* * *

System: HL-60
assay-notes: cell viability (% survival relative to DMSO control); higher = less cytotoxic
condition-description: 1 µM; 72 h; co-treatment: AZD3965 100 nM
Record form. Attribute: cell viability. Fill in for each entry.
Give bare numbers, in %.

>  <compound>
CCCc1nn(C)c2c(O)nc(-c3cc(S(=O)(=O)N4CCN(C)CC4)ccc3OCC)nc12 [Sildenafil]

>  <unit-name>
%

>  <numeric-value>
99.4

$$$$

Each compound below has a reported value. Please supply its cell viability.
1. O=C1Oc2ccccc2C(=O)C1CC1C(=O)Oc2ccccc2C1=O (stereo unspecified) [Dicumarol]
2. C[C@H]1O[C@@H](O[C@H]2[C@@H](O)C[C@H](O[C@H]3[C@@H](O)C[C@H](O[C@H]4CC[C@@]5(C)[C@H](CC[C@@H]6[C@@H]5C[C@@H](O)[C@]5(C)[C@@H](C7=CC(=O)OC7)CC[C@]65O)C4)O[C@@H]3C)O[C@@H]2C)C[C@H](O)[C@@H]1O [Digoxin]
3. [N-]=[N+]=CC(=O)CC[C@H](N)C(=O)O [6-Diazo-5-oxo-L-norleucine]
4. CC(C)C[C@H](NC(=O)[C@@H](O)[C@H](N)Cc1ccccc1)C(=O)O [Ubenimex]
5. Cl.OC[C@H]1NC[C@@H](O)[C@@H](O)[C@@H]1O [1-Deoxymannojirimycin hydrochloride]

1: 101; 2: -2.24; 3: 100; 4: 98.1; 5: 102

* * *

Test system: myeloid leukemia patient primary cells Pat.15
assay-notes: area under dose-response curve (viability, 1 nM-10 uM) (fraction (0-1)); higher = more sensitive
condition-description: 72 h
quantity-kind: area under dose-response curve
Numbers only.

>  <compound>
C[C@]12O[C@H](C[C@]1(O)CO)n1c3ccccc3c3c4c(c5c6ccccc6n2c5c31)CNC4=O [Lestaurtinib]

>  <numeric-value>
0.533

$$$$

Noted for Nc1ccn([C@@H]2O[C@H](CO)[C@@H](O)[C@@H]2O)c(=O)n1 [Cytarabine] : its area under dose-response curve reads 0.109

* * *

Record form. Attribute: cell viability. Fill in for each entry.
System: HL-60
assay-notes: cell viability (% survival relative to DMSO control); higher = less cytotoxic
condition-description: 1 µM; 72 h; co-treatment: GSK2194069 100 nM
Numbers only, in %.

>  <compound>
O=c1c2ccccc2[se]n1-c1ccccc1 [Ebselen]

>  <test-target>
HL-60

>  <numeric-value>
108

$$$$

Each compound below has a reported value. Please supply its cell viability.
1. Cc1ccc(S(=O)(=O)NC2c3ccccc3Oc3ccccc32)cc1 [AH-7614]
2. Oc1cc(Cl)ccc1Oc1ccc(Cl)cc1Cl [Triclosan]
3. CC(C)C[C@H](NC(=O)[C@@H](O)[C@H](N)Cc1ccccc1)C(=O)O [Ubenimex]
4. O=C(O)CC[C@H](NC(=O)c1ccc([N+](=O)[O-])cc1)C(=O)O [(S)-2-(4-Nitrobenzamido)pentanedioic acid]
5. O=C(O)CCc1ccc(NCc2cccc(Oc3ccccc3)c2)cc1 [GW9508]

[95.1, 105, 94, 102, 108]

Noted for CCOC(=O)[C@@]1(CCCCCCOc2ccc(Cl)cc2)CO1 [Etomoxir] : its cell viability reads 77.9
